// data source = ChEMBL document CHEMBL1131338

System tested: Sulfonylurea receptor 2, Kir6.2 (Homo sapiens) (UniProt Q14654+O60706)
Experiment description: Hill Coefficient calculated by curve fitting of data to a single binding site model
Type: protein-complex assay
A collection of molecules and their measured Hill coefficient
Measured endpoint: Hill coefficient

# Molecule, Measured endpoint, Numeric result
records = [
    ("CC(C)(C)/N=C(\\NC#N)Nc1ccc(C#N)cc1", "Hill coefficient", 1.15),
    ("CCC(C)(C)/N=C(\\NC#N)Nc1cccnc1", "Hill coefficient", 1.17),
    ("CC(/N=C(\\NC#N)Nc1ccccc1)C(C)(C)C (stereo not drawn)", "Hill coefficient", 1.04),
    ("CCC(C)(C)/N=C(\\NC#N)Nc1ccc(I)cc1", "Hill coefficient", 0.76),
    ("CC(C)/N=C(\\NC#N)Nc1ccc(C#N)cc1", "Hill coefficient", 0.81),
    ("CC(N/C(=N\\C#N)Nc1ccncc1)C(C)(C)C (stereo not drawn) [PINACIDIL ANHYDROUS]", "Hill coefficient", 0.86),
    ("CC(/N=C(\\NC#N)Nc1cccc(C#N)c1)C(C)(C)C (stereo not drawn)", "Hill coefficient", 0.67),
    ("CCC(C)(C)/N=C(\\NC#N)Nc1ccc(I)c(N=[N+]=[N-])c1", "Hill coefficient", 0.82),
    ("COc1ccc(Cl)cc1C(=O)NCCc1ccc(S(=O)(=O)NC(=O)NC2CCCCC2)cc1 [GLYBURIDE]", "Hill coefficient", 0.67),
    ("CCC(C)(C)/N=C(\\NC#N)Nc1ccc(C#N)cc1", "Hill coefficient", 0.99),
    ("CC(/N=C(\\NC#N)Nc1ccc(C#N)cc1)C(C)(C)C (stereo not drawn)", "Hill coefficient", 0.75),
    ("CC1(C)Oc2ccc(C#N)cc2[C@H](N2CCCC2=O)[C@H]1O (single isomer, unassigned)", "Hill coefficient", 1.5),
    ("CC1(C)Oc2ccc(C#N)cc2[C@H](N2CCCC2=O)[C@H]1O", "Hill coefficient", 1.06),
]

###

Species on record: Rattus norvegicus
Experiment description: Inhibitory concentration against methoxamine-induced contractions in rat aorta
Format: functional, organism-based
pIC50: −log10 of the molar value.

# Molecule, pIC50
rows = [
    ("CC1(C)Oc2ccc(C#N)cc2[C@H](N2CCCC2=O)[C@H]1O [(-)-CROMAKALIM]", 5.19),
    ("CC1(C)Oc2ccc(C#N)cc2[C@H](N2CCCC2=O)[C@H]1O (single isomer, unassigned) [(-)-CROMAKALIM]", 7.40),
]
